Data origin, for the record: ChEMBL document CHEMBL1287737

assay-protocol: Oral bioavailability in rat
Type: ADME, organism-based
condition-description: in vivo
measure: bioavailability (%)
I only need the number, in %, no unit after it.

-- ask What bioavailability value was documented for this compound, CC(C)[C@H](N[C@@H](c1ccc(-c2ccc([C@@H](O)C(F)F)cc2)cc1)C(F)(F)F)C(=O)N[C@H](C#N)Cc1ccc(C#N)cc1F ?
-- reply 20

* * *

Notes on IC50 obtained with Procathepsin L (Homo sapiens).
Sequence (P07711 whole entry): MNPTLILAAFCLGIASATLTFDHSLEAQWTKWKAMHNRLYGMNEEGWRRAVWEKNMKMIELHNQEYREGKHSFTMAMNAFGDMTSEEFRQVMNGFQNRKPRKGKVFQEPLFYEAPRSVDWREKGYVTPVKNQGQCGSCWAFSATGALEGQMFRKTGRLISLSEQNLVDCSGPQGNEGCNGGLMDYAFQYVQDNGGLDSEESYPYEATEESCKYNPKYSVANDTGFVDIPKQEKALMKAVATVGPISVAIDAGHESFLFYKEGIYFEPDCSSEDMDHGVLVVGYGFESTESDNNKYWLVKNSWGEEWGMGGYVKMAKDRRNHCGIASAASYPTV
I only need the number, in µM, no unit after it.

-- ask What IC50 value was documented for this compound, CC(C)(F)C[C@H](N[C@@H](c1ccc(-c2ccc(S(C)(=O)=O)cc2)cc1)C(F)(F)F)C(=O)N[C@H](C#N)Cc1ccncc1 ?
-- reply 0.219

-- ask Consider next the compound CC(C)[C@H](N[C@@H](c1ccc(-c2ccc([C@@H](O)C(F)F)cc2)cc1)C(F)(F)F)C(=O)N[C@H](C#N)Cc1ccc(C#N)cc1F in the same way.
-- reply 1.06

-- ask Consider next the compound CC(C)[C@H](N[C@@H](c1ccc(-c2ccc(C3(C(N)=O)CC3)cc2)cc1)C(F)(F)F)C(=O)N[C@H](C#N)Cc1ccc(C#N)cc1F in the same way.
-- reply 0.098

-- ask Consider next the compound CC(C)(F)C[C@H](N[C@@H](c1ccc(-c2ccc(S(C)(=O)=O)cc2)cc1)C(F)(F)F)C(=O)N[C@H](C#N)Cc1ccccc1 in the same way.
-- reply 0.966

* * *

Notes on IC50 obtained with Procathepsin L (Homo sapiens).
I only need the number, in nM, no unit after it.

-- ask What IC50 value was documented for this compound, CC(C)(F)C[C@H](N[C@@H](c1ccc(-c2ccc([C@@H](O)C(F)F)cc2)cc1)C(F)(F)F)C(=O)N[C@H](C#N)Cc1ccccc1 ?
-- reply 1090

-- ask Consider next the compound CC(C)(F)C[C@H](N[C@@H](c1ccc(-c2ccc(C3(C(N)=O)CC3)cc2)cc1)C(F)(F)F)C(=O)N[C@H](C#N)Cc1ccccc1 in the same way.
-- reply 426

-- ask Consider next the compound CC(C)(F)C[C@H](N[C@@H](c1ccc(-c2cn[nH]c2)cc1)C(F)(F)F)C(=O)N[C@H](C#N)Cc1ccccc1 in the same way.
-- reply 379

-- ask Consider next the compound CC(C)C[C@H](N[C@@H](c1ccc(-c2ccc(S(C)(=O)=O)cc2)cc1)C(F)(F)F)C(=O)N[C@H](C#N)Cc1ccccc1 in the same way.
-- reply 117

-- ask Consider next the compound CS(=O)(=O)c1ccc(-c2ccc([C@H](N[C@@H](CC(Cl)Cl)C(=O)N[C@H](C#N)Cc3ccccc3)C(F)(F)F)cc2)cc1 in the same way.
-- reply 42

-- ask Consider next the compound CS(=O)(=O)c1ccc(-c2ccc([C@H](N[C@H](C(=O)N[C@H](C#N)Cc3ccccc3)C3CC3)C(F)(F)F)cc2)cc1 in the same way.
-- reply 751

-- ask Consider next the compound CC(C)(F)C[C@H](N[C@@H](c1ccc(-c2ccc(C3(C(=O)N4CCOCC4)CC3)cc2)cc1)C(F)(F)F)C(=O)N[C@H](C#N)Cc1ccccc1 in the same way.
-- reply 1080

* * *

Exercise: state measured IC50 for each of the compounds provided.
assayed-system: Cathepsin S (Homo sapiens)
Sequence (P25774 whole entry): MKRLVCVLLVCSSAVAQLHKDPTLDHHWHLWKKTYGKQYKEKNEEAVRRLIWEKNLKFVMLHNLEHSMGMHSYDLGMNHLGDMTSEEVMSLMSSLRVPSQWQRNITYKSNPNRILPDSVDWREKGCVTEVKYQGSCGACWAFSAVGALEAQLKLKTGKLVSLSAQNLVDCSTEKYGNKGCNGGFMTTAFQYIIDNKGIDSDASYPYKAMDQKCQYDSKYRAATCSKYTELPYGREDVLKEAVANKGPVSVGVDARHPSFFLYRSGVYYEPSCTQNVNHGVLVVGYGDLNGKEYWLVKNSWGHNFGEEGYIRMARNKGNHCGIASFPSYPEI
assay-protocol: Inhibition of human Cat S expressed in Ramos cells
I only need the number, in nM, no unit after it.

-- ask Lab request: please report IC50 under test system Cathepsin S (Homo sapiens) for CC(C)[C@H](N[C@@H](c1ccc(-c2ccc(C3(C(N)=O)CC3)cc2)cc1)C(F)(F)F)C(=O)N[C@H](C#N)Cc1ccc(C#N)cc1F
-- reply 408

-- ask Consider next the compound CC(C)[C@H](N[C@@H](c1ccc(-c2ccc(S(C)(=O)=O)cc2)cc1)C(F)(F)F)C(=O)N[C@H](C#N)Cc1ccc(C#N)cc1F in the same way.
-- reply 169

-- ask Consider next the compound CC(C)[C@H](N[C@@H](c1ccc(-c2ccc([C@@H](O)C(F)F)cc2)cc1)C(F)(F)F)C(=O)N[C@H](C#N)Cc1ccc(C#N)cc1F in the same way.
-- reply 322

* * *

Notes on IC50 obtained with Cruzipain (Trypanosoma cruzi, UniProt P25779).
Sequence (P25779 whole entry): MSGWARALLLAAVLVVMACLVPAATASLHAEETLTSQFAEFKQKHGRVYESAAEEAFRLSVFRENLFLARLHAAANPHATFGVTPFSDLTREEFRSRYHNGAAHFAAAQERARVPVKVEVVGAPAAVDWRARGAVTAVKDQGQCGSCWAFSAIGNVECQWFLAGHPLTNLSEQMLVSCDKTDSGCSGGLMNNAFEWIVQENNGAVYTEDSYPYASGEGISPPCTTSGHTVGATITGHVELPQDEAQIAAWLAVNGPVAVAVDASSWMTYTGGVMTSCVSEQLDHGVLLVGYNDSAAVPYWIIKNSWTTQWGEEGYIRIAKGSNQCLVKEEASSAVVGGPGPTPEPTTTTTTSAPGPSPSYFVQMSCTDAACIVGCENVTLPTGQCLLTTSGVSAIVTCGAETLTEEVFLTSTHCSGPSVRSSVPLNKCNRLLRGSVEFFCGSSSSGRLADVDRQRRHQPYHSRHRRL
I only need the number, in µM, no unit after it.

-- ask What IC50 value was documented for this molecule, CC(C)(C)[C@H](N[C@@H](c1ccc(-c2ccc(S(C)(=O)=O)cc2)cc1)C(F)(F)F)C(=O)N[C@H](C#N)Cc1ccccc1 ?
-- reply 0.38

-- ask Consider next the molecule CC(C)C[C@H](N[C@@H](c1ccc(-c2ccc(N3CCNCC3)cc2)cc1)C(F)(F)F)C(=O)NCC#N in the same way.
-- reply 0.0018

-- ask Consider next the molecule CC(C)(F)C[C@H](N[C@@H](c1ccc(-c2ccc(S(C)(=O)=O)cc2)cc1)C(F)(F)F)C(=O)N[C@H](C#N)CC(F)(F)F in the same way.
-- reply 0.13

-- ask Consider next the molecule CC(C)(F)C[C@H](N[C@@H](c1ccc(-c2cn[nH]c2)cc1)C(F)(F)F)C(=O)N[C@H](C#N)Cc1ccccc1 in the same way.
-- reply 0.033

* * *

assayed-system: UniProtKB P43235
Sequence (P43235 whole entry): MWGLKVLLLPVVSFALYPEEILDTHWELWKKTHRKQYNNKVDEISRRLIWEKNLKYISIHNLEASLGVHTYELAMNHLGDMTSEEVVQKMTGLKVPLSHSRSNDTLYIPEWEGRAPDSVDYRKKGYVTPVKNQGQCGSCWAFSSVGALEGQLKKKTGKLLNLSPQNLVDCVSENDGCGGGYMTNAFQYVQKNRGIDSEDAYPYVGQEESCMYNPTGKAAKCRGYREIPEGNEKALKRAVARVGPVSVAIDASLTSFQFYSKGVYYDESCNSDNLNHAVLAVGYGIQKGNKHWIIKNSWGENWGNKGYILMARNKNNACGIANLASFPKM
assay-protocol: Inhibition of human Cat K expressed in Ramos cells
Exercise: state measured IC50 for each of the compounds provided.
I only need the number, in nM, no unit after it.

-- ask What IC50 value was documented for this compound, CC(C)[C@H](N[C@@H](c1ccc(-c2ccc(S(C)(=O)=O)cc2)cc1)C(F)(F)F)C(=O)N[C@H](C#N)Cc1ccc(C#N)cc1F ?
-- reply 0.9

-- ask Consider next the compound CC(C)[C@H](N[C@@H](c1ccc(-c2ccc(C3(C(N)=O)CC3)cc2)cc1)C(F)(F)F)C(=O)N[C@H](C#N)Cc1ccc(C#N)cc1F in the same way.
-- reply 3

-- ask Consider next the compound CC(C)[C@H](N[C@@H](c1ccc(-c2ccc([C@@H](O)C(F)F)cc2)cc1)C(F)(F)F)C(=O)N[C@H](C#N)Cc1ccc(C#N)cc1F in the same way.
-- reply 2

* * *

assay-protocol: Half life in dog
Assay type: ADME, organism-based, Canis lupus familiaris
condition-description: in vivo
measure: half-life (h)
I only need the number, in h, no unit after it.

-- ask What half-life value was documented for this compound, CC(C)[C@H](N[C@@H](c1ccc(-c2ccc([C@@H](O)C(F)F)cc2)cc1)C(F)(F)F)C(=O)N[C@H](C#N)Cc1ccc(C#N)cc1F ?
-- reply 4.6

* * *

Notes on IC50 obtained with Cathepsin B (Homo sapiens).
I only need the number, in nM, no unit after it.

-- ask What IC50 value was documented for this compound, CC(C)(F)C[C@H](N[C@@H](c1ccc(-c2ccc(S(C)(=O)=O)cc2)cc1)C(F)(F)F)C(=O)N[C@H](C#N)CCc1ccccc1 ?
-- reply 397

-- ask Consider next the compound CC(C)(F)C[C@H](N[C@@H](c1ccc(-c2ccc(S(C)(=O)=O)cc2)cc1)C(F)(F)F)C(=O)N[C@H](C#N)Cc1ccncc1 in the same way.
-- reply 79

-- ask Consider next the compound CS(=O)(=O)c1ccc(-c2ccc([C@H](N[C@@H](CC(Cl)Cl)C(=O)N[C@H](C#N)Cc3ccccc3)C(F)(F)F)cc2)cc1 in the same way.
-- reply 383

-- ask Consider next the compound CC(C)[C@H](N[C@@H](c1ccc(-c2ccc(S(C)(=O)=O)cc2)cc1)C(F)(F)F)C(=O)N[C@H](C#N)Cc1ccccc1 in the same way.
-- reply 433

-- ask Consider next the compound CC(C)[C@H](N[C@@H](c1ccc(-c2ccc(S(C)(=O)=O)cc2)cc1)C(F)(F)F)C(=O)N[C@H](C#N)Cc1ccc(C#N)cc1F in the same way.
-- reply 143

-- ask Consider next the compound CC(C)(F)C[C@H](N[C@@H](c1ccc(-c2ccc(S(C)(=O)=O)cc2)cc1)C(F)(F)F)C(=O)N[C@H](C#N)Cc1ccc(C#N)cc1F in the same way.
-- reply 9

-- ask Consider next the compound CC(C)[C@H](N[C@@H](c1ccc(-c2ccc(C3(C(N)=O)CC3)cc2)cc1)C(F)(F)F)C(=O)N[C@H](C#N)Cc1ccc(C#N)cc1F in the same way.
-- reply 41

-- ask Consider next the compound CC(C)(F)C[C@H](N[C@@H](c1ccc(-c2ccc(C3(C(=O)N4CCOCC4)CC3)cc2)cc1)C(F)(F)F)C(=O)N[C@H](C#N)Cc1ccccc1 in the same way.
-- reply 64

-- ask Consider next the compound CC(C)C[C@H](N[C@@H](c1ccc(-c2ccc(S(C)(=O)=O)cc2)cc1)C(F)(F)F)C(=O)N[C@H](C#N)Cc1ccccc1 in the same way.
-- reply 163

* * *

assay-protocol: Half life in mouse
Assay type: ADME, organism-based
condition-description: in vivo
measure: half-life

-- ask What half-life value was documented for this compound, CC(C)(F)C[C@H](N[C@@H](c1ccc(-c2ccc(S(C)(=O)=O)cc2)cc1)C(F)(F)F)C(=O)N[C@H](C#N)Cc1ccccc1 ?
-- reply < 30 min
